# assay target: rat olfactory CNG channel subunit 1 (Rattus norvegicus, UniProt Q00195)
# Sequence (Q00195 whole entry): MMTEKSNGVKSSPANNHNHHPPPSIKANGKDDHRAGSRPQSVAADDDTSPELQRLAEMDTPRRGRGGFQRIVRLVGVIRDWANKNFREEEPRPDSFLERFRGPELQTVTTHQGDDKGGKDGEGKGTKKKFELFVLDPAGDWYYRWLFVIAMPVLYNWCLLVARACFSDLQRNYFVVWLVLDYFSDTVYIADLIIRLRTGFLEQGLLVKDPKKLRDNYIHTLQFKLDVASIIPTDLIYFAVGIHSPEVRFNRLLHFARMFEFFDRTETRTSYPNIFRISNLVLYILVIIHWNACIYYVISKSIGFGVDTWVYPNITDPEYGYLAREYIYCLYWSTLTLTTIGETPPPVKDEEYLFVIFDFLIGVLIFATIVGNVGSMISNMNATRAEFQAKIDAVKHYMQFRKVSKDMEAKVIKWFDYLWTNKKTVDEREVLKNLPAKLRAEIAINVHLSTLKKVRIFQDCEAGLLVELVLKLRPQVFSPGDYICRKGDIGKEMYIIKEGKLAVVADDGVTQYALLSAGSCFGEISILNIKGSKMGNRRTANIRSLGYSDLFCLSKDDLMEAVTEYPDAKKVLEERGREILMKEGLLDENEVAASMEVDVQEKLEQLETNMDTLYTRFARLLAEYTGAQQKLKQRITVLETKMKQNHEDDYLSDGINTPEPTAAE
# assay name: inside-out patch clamp, cGMP dose-response of current
# Assay type: cell-based
reported metric: EC50 (nM)

INSERT INTO assay_data (compound, assay_target, readout_number) VALUES
  ('Nc1nc2c(ncn2[C@@H]2O[C@@H]3COP(=O)(O)O[C@H]3[C@H]2O)c(=O)[nH]1 [cGMP]', 'rat olfactory CNG channel subunit 1 (Rattus norvegicus, UniProt Q00195)', 2100);
